assay: NCI Yeast Anticancer Drug Screen. Data for the mlh1 rad18 strain (AID 175); settings: S. cerevisiae mlh1 rad18 strain growth inhibition; at 5.0 µM (retest, dose inferred, filed as 0.5)
This is part of a sample that, as a whole, favours compounds with a hit. Of some 79,000 tested, about 15% had one in any assay. Active and inactive are the calls of the source. Cut-off read from the data, not from the text of the source: active = growth inhibition above about 70%; inactive = the rest.
Please answer using one outcome listed in active, inactive

Would you please look over these solved cases?
q: Name the outcome recorded for `COC(=O)c1ncc(Cl)cc1Cl` in the assay.
a: inactive

q: Name the outcome recorded for CN1C=CC(C(O)(c2ccccc2)c2ccccc2)CC1 (stereo unspecified) in the assay.
a: inactive

q: Name the outcome recorded for C1CCC(OC2CCCCO2)OC1 (stereo unspecified) in the assay.
a: inactive

q: Name the outcome recorded for `COc1ccc(C(=O)Nc2ccc(O)c(=O)cc2)cc1` in the assay.
a: inactive

q: Name the outcome recorded for `CC1=C(C(=O)Nc2ccccc2)C(c2ccccc2F)C(C(=O)Nc2ccccc2)=C(C)N1` in the assay.
a: inactive

q: Name the outcome recorded for `Cc1cccc2cc3c(cc12)c(C)cc1ccccc13` in the assay.
a: inactive

q: Name the outcome recorded for `CS(=O)(=O)OCCN(CCOS(C)(=O)=O)c1ccc(C=Nc2cccc(Cl)c2)cc1` in the assay.
a: active

q: Name the outcome recorded for `CCOc1ccc2c(c1)[n+]([O-])c(-c1ccc(Cl)cc1)c(N)[n+]2[O-]` in the assay.
a: inactive

q: Name the outcome recorded for `O=C(CCSCCC(=O)NNc1ccccc1)NNc1ccccc1` in the assay.
a: inactive

q: Name the outcome recorded for `CCOc1ccc(-c2nc3ccc(-c4nc5ccc(N6CCN(C)CC6)cc5[nH]4)cc3[nH]2)cc1` in the assay.
a: inactive

***
q: Name the outcome recorded for `CC1=NC2=NC(CCCC(=O)OCc3ccc(Cl)c(Cl)c3)=NC3=CC=CC(=N1)N32` in the assay.
a: inactive

q: Name the outcome recorded for O=[N+]([O-])OC1CCCC(O[N+](=O)[O-])c2c1n([O-])c1ccccc1[n+]2=O (stereo unspecified) in the assay.
a: inactive

====

Catalogue of growth inhibition values
assay: NCI Yeast Anticancer Drug Screen. Data for the rad50 strain (AID 155);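 note: 0% = growth of vehicle-only cultures of the same strain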; conditions: S. cerevisiae rad50 strain growth inhibition; at 50.0 µM (retest, dose inferred, filed as 5.0); hits give high values
The panel holds about 79,000 compounds, 15% with a hit somewhere; the sample as a whole holds those more often.
I only need the number, in %, no unit after it.

Guide cases for growth inhibition, answers given:
q: Give the reported value of growth inhibition for this record: O=C1Oc2ccccc2C1c1ccccc1 (centres undefined)
a: 90

q: Give the reported value of growth inhibition for this record: `N#CC1=CN=C2C=CC=C3N=C(C(Cl)(Cl)Cl)N=C1N32`
a: 93

q: Give the reported value of growth inhibition for this record: `CC(=O)Nc1ccc(-c2cnc3ccccc3c2)cc1`
a: 29

***
q: Give the reported value of growth inhibition for this record: C=C1C(=O)OC2CC1C(O)C/C(C)=C/CC/C(C)=C/C(O)CC2C (centres undefined)
a: 70

====

test: NCI Yeast Anticancer Drug Screen. Data for the mlh1 rad18 strain (AID 175); conditions: S. cerevisiae mlh1 rad18 strain growth inhibition; at 50.0 µM; hits give high values
Compounds without any hit were thinned out: in the full panel of roughly 79,000, 15% have a hit.
Catalogue of growth inhibition values
I only need the number, in %, no unit after it.

Guide cases for growth inhibition, answers given:
q: Give the reported value of growth inhibition for this record: Cc1ccc(N2C(=O)C(C)SC23C(=O)Nc2ccc(Cl)cc23)cc1 (centres undefined)
a: 89

q: Give the reported value of growth inhibition for this record: `Cn1c(N)c(N=Nc2ccc(S(N)(=O)=O)cc2)c(=O)n(C)c1=O`
a: -9.4

q: Give the reported value of growth inhibition for this record: `COc1ccc2c(c1)CC[C@@H]1[C@@H]2CC[C@]2(C)/C(=N/OCCN3CCCCC3)CC[C@@H]12`
a: 83

q: Give the reported value of growth inhibition for this record: O=C(O)C(O)C(O)C(O)C(O)c1nc2ccccc2s1 (centres undefined)
a: 99

***
q: Give the reported value of growth inhibition for this record: COc1cc(C(c2cc3c(cc2O)OCO3)N2CCCCC2)cc(OC)c1OC (centres undefined)
a: 62.6

q: Give the reported value of growth inhibition for this record: Cc1ccc(S(=O)(=O)N2CCN3C(=O)c4ccccc4C32c2ccc(F)cc2)cc1 (centres undefined)
a: 29.2

q: Give the reported value of growth inhibition for this record: `COc1ccccc1/C=C\C(=O)c1ccccc1`
a: 98.8

q: Give the reported value of growth inhibition for this record: CC(C)c1ccc(/C=C2\CSCC3=C2NC(=S)NC3c2ccc(C(C)C)cc2)cc1 (centres undefined)
a: 98.4

q: Give the reported value of growth inhibition for this record: `O=C(Nc1ccc(S(=O)(=O)NC2CCCCC2)cc1)OCc1ccccc1`
a: 54.6

====

test: NCI Yeast Anticancer Drug Screen. Data for the rad50 strain (AID 155);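 note: 0% = growth of vehicle-only cultures of the same strain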; settings: S. cerevisiae rad50 strain growth inhibition; at 5.0 µM (retest, dose inferred, filed as 0.5); hits give high values
Compounds without any hit were thinned out: in the full panel of roughly 79,000, 15% have a hit.
Catalogue of growth inhibition values
I only need the number, in %, no unit after it.

Guide cases for growth inhibition, answers given:
q: Give the reported value of growth inhibition for this record: CC(C(=O)O)c1c(-c2ccccc2)ccc2ccccc12 (stereo unspecified)
a: 37

q: Give the reported value of growth inhibition for this record: `CC(=O)Oc1c(Cl)cc(Cl)cc1C(c1cc(Cl)cc(Cl)c1OC(C)=O)C(Cl)(Cl)Cl`
a: 6

q: Give the reported value of growth inhibition for this record: `COc1ccc(NC(=O)OC(C)C)c(OC)c1`
a: 2

q: Give the reported value of growth inhibition for this record: COc1cccc(C2c3cc4c(cc3OC(Nc3ccccc3)C2C)OCO4)c1O (stereo unspecified)
a: -8

q: Give the reported value of growth inhibition for this record: `CC(=O)Nc1cccc2ccc(C)cc12`
a: 0

q: Give the reported value of growth inhibition for this record: `NC(=O)c1nnn(Cc2cc(Cl)c(C(=O)c3ccc(Cl)cc3)c(Cl)c2)c1N`
a: 2

q: Give the reported value of growth inhibition for this record: COc1ccc(C(c2cc3c(cc2O)OCO3)N2CCOCC2)cc1OC (stereo unspecified)
a: -2

q: Give the reported value of growth inhibition for this record: `Cc1cc(/C=C/c2cccc[n+]2C)c(C)n1-c1ccccc1`
a: 4

Now for a further compound.
q: Give the reported value of growth inhibition for this record: `O=[N+]([O-])c1cc(Cl)c(Cl)cc1NS(=O)(=O)c1ccccc1`
a: 17

====

experiment: NCI Yeast Anticancer Drug Screen. Data for the mlh1 rad18 strain (AID 175); settings: S. cerevisiae mlh1 rad18 strain growth inhibition; at 5.0 µM (retest, dose inferred, filed as 0.5); hits give high values
The panel holds about 79,000 compounds, 15% with a hit somewhere; the sample as a whole holds those more often.
measurement.label: growth inhibition (%)
I only need the number, in %, no unit after it.

Guide cases for growth inhibition, answers given:
q: Give the reported value of growth inhibition for this record: `Cc1cc2c(cc1C)[n+](=O)c(C(=O)C/C(=N/NC(=O)CC#N)C(=O)Nc1ccccc1C(F)(F)F)c(C)n2[O-]`
a: 54

q: Give the reported value of growth inhibition for this record: `O=C(/C=C/C(=O)OCCCl)OCCCl`
a: 4

q: Give the reported value of growth inhibition for this record: `O=C1SCCN1/N=C/c1ccc([N+](=O)[O-])o1`
a: 51

q: Give the reported value of growth inhibition for this record: `CC[N+]1=C(/C=C\c2cc(C)c3cccnc3c2O)C(C)(C)c2ccccc21`
a: 0

q: Give the reported value of growth inhibition for this record: COC1(CO)C(=O)N(C)CC(=O)N1C (stereo not drawn)
a: 1

***
q: Give the reported value of growth inhibition for this record: COc1ccc(C(c2cc3c(cc2O)OCO3)N2CCOCC2)cc1OC (stereo not drawn)
a: -2

q: Give the reported value of growth inhibition for this record: O=C1C=CC(=Nc2cc3c(cc2Br)-c2ccccc2C3Br)O1 (stereo not drawn)
a: 26

q: Give the reported value of growth inhibition for this record: `O=C(O)/C(Cl)=C(\Cl)C(=O)Nc1cccc(C(F)(F)F)c1`
a: 49

q: Give the reported value of growth inhibition for this record: Cc1cccc(C)c1N1C(=O)C2Nc3ccccc3SC2C1=O (stereo not drawn)
a: 11

q: Give the reported value of growth inhibition for this record: COc1cc(C(=O)NC(CCC(=O)O)C(=O)O)ccc1N(C)Cc1cnc2nc(N)nc(N)c2n1 (stereo not drawn)
a: -51

q: Give the reported value of growth inhibition for this record: `CC(=O)Oc1c(Cl)cc(Cl)cc1C(c1cc(Cl)cc(Cl)c1OC(C)=O)C(Cl)(Cl)Cl`
a: -2

q: Give the reported value of growth inhibition for this record: COc1cc(OC)cc(C2OC3=C(Nc4ccc([N+](=O)[O-])cc4N3)C2=O)c1 (stereo not drawn)
a: -4

q: Give the reported value of growth inhibition for this record: `CC(=O)n1nc2c(c1CC(C)C)C(=O)C(Nc1ccccc1)=CC2=O`
a: 1
